experimental_system: EP4 receptor (Homo sapiens)
Sequence (P35408 whole entry): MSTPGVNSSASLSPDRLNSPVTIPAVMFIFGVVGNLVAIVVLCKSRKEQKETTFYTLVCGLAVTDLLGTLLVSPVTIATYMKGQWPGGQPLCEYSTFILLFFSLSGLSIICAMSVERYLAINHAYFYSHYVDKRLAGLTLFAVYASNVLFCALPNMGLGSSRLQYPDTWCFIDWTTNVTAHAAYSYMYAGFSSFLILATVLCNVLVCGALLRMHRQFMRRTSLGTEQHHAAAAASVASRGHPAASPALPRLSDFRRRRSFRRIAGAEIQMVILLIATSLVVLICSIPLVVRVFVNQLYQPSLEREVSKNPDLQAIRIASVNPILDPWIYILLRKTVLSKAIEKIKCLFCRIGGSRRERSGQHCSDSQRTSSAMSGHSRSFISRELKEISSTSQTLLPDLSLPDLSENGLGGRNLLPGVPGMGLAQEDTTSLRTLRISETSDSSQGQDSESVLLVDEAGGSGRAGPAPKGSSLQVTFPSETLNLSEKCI
assay_remarks: Schild regression analysis for EP4 receptor
Assay type: cell-based
assay_context: read-out: KB (μM) EP4, from Schild regression analysis
Source text: Information on the modality of antagonism can be obtained by performing Schild regression analysis characterized by: log (dr−1)=log XB−log KB. In the equation, dose ratio (dr)=fold shift in EC50, XB=[antagonist], KB=equilibrium dissociation constant for the antagonist-receptor complex. […] Thus, a lower KB value indicates a higher inhibitory potency.
Classify as follows. Reported Kb greater than or equal to 10 µM: condition met. Reported Kb below: condition not met.

Take a look at these entries with their results.
COc1cc(C=CC(=O)NCCn2c(C)nc3ccccc32)cc(OC)c1OC [1a]; condition met
COc1cc(C=CC(=O)NCCCn2c(C)cc3ccccc32)cc(OC)c1OC [1j]; condition not met
Cc1cc2cc(F)ccc2n1CCNC(=O)C=Cc1ccc(F)c(F)c1 [1s]; condition met
Cc1cc2cc(F)ccc2n1CCNC(=O)C=Cc1cc(F)c(F)c(F)c1 [1u]; condition met
CCOc1ccc(C=CC(=O)NCCn2c(C)cc3ccccc32)cc1OC [1p]; condition not met
Cc1cc2ccccc2n1CCNC(=O)C=Cc1ccc(CC(C)C)cc1 [1q]; condition met
COc1cc(CCC(=O)NCCn2c(C)cc3ccccc32)cc(OC)c1OC [1l]; condition met
Cc1nc2ccccc2n1CCNC(=O)C=Cc1ccc2c(c1)OCO2 [1c]; condition met
COc1ccc(C=CC(=O)NCCn2c(C)cc3ccccc32)cc1OC [A2]; condition not met
Cc1cc2ccccc2n1CCNC(=O)C=Cc1ccc(F)c(F)c1 [1r]; condition met

Query block: Exam item: decide whether the reported Kb for COc1ccc(/C=C/C(=O)NCCn2c(C)cc3cc(F)ccc32)cc1Cl [1x] is at least 10 µM.
Result block: condition not met

Query block: Evaluate COc1cc(C=CC(=O)NCCn2c(C)cc3cc(F)ccc32)cc(OC)c1OC [1f] : Kb at minimum 10 µM?
Result block: condition not met

Query block: Given COc1cc(OC)c(C=CC(=O)NCCn2c(C)cc3ccccc32)cc1Br [1y] , state whether its Kb is at least 10 µM.
Result block: condition not met

Query block: Hi team, for COc1cc(C=CC(=O)N(C)CCn2c(C)cc3ccccc32)cc(OC)c1OC [1k] , is the recorded Kb at or above 10 µM?
Result block: condition met

###

experimental_system: EP2 receptor (Homo sapiens, UniProt P43116)
Sequence (P43116 whole entry): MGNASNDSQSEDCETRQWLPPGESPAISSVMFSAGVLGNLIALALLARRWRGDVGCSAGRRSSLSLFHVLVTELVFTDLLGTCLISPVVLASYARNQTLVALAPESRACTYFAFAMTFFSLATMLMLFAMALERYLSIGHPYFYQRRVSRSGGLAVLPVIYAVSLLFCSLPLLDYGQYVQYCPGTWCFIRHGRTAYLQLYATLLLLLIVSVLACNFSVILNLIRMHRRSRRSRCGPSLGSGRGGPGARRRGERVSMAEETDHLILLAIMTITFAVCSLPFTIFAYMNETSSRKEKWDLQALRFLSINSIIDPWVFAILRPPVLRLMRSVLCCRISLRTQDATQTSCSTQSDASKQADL
assay_remarks: Schild regression of PGE2-induced EP2 activation in C6G-EP2 cells
Assay type: cell-based
Set-up: expressed in transfected cells; host or cells: C6G-EP2 cells
assay_context: C6G-EP2 cells, PGE2 as agonist; read-out: KB (nM) EP2, from Schild regression analysis
Would you mind labelling by Kb? At or over 20 nM is yes, under is no.

Cc1nc2ccccc2n1CCNC(=O)C=Cc1ccc2c(c1)OCO2; yes
Cc1cc2cc(F)ccc2n1CCNC(=O)C=Cc1ccc(F)c(F)c1; no
COc1ccc(C=CC(=O)NCCn2c(C)cc3cc(F)ccc32)cc1OC; yes
COc1ccc(C=CC(=O)NCCn2c(C)cc3ccccc32)cc1; no

Query block: hey, is Kb for this one >= 20 nM? Cc1cc2ccccc2n1CCNC(=O)C=Cc1ccc2c(c1)OCO2
Result block: no
